# assay: PK properties in monkeys with or without alkyl glycoside, intravenous route and nasal spray
# Format: in vivo, cynomolgus monkey
# conditionNotes: cynomolgus monkey, plasma, 1 mg/kg, cynomolgus monkeys, IN@1 mg/kg (Solvent 1, no DDM); read-out: Area under curve AUC
propertyLabel: AUC (ng·h/mL)
Answer format: numeric, ng·h/mL implied, no suffix.

// query AUC value for entry `Cc1cc(C[C@@H](NC(=O)N2CCC(c3cc4c([nH]c3=O)SCCC4)CC2)C(=O)N2CCN(C3CCN(C)CC3)CC2)cc2cn[nH]c12`
43.2

----------
# assay: PK properties in SD rats with different concentrations of alkyl glycoside (0.05% and 5% DDM)
# Format: in vivo
# conditionNotes: rat, in vivo, intranasal, 5% alkyl glycoside
propertyLabel: Tmax
Quick note: unit goes after the number.

// query Tmax value for entry `Cc1cc(C[C@@H](NC(=O)N2CCC(c3cc4c([nH]c3=O)SCCC4)CC2)C(=O)N2CCN(C3CCN(C)CC3)CC2)cc2cn[nH]c12`
4.98 min
